- System: OVCAR-5 ovarian
- Test summary: NCI tumour cell line growth inhibition, 48 h
Metric: TGI

Cc1n[nH]c(=O)n1/N=C/c1ccc(F)cc1 | > 100 µM
O=C(Nc1ccc(Cl)cc1Cl)C1C(=O)C(=O)N(c2ccc(Cl)cc2Cl)C1=O (stereo not drawn) | > 100 µM
CC(C)[O-].CC(C)[O-].O=C1C=C([O-])C(=O)c2ccccc21.O=C1C=C([O-])C(=O)c2ccccc21.[Ti+4] | > 100 µM

The following molecules each have a reported value; give each one's TGI.
1. O=C1O[C@H](c2ccccc2)[C@@H]2CC3(CCN12)OCCO3
2. COc1ccc(/C(COc2ccc3c(=O)c(-c4ccccc4)coc3c2)=N\O)cc1
3. CC1(C)CC2=C(Sc3ccccc3N2)C(=O)C1C(=O)C(=O)Nc1cccc([N+](=O)[O-])c1 (stereo not drawn)
4. COC(=O)C1=CSC2(S1)C(C(=O)OC)=CSc1c2ssc1=O (stereo not drawn)
5. CCN(CC)CCCNC(=O)C1COc2cc(-c3cc(=O)c4ccccc4o3)ccc2O1 (stereo not drawn)
6. C=C1C(C2(C)C(OC(C)=O)CC(=O)OC(C)(COC(C)=O)C2CC(=O)OC)C(OC=O)C(OC(=O)C(O)C(C)CC)C2(C)C(c3ccoc3)CC(=O)C12O (stereo not drawn)

OUT:
1. > 100 µM
2. > 96.5 µM
3. > 100 µM
4. 21.9 µM
5. > 100 µM
6. > 100 µM
